Entries annotated with measured log10(EC50)
# tested on: human GcgR (Homo sapiens, UniProt P47871)
# Sequence (P47871 26-477): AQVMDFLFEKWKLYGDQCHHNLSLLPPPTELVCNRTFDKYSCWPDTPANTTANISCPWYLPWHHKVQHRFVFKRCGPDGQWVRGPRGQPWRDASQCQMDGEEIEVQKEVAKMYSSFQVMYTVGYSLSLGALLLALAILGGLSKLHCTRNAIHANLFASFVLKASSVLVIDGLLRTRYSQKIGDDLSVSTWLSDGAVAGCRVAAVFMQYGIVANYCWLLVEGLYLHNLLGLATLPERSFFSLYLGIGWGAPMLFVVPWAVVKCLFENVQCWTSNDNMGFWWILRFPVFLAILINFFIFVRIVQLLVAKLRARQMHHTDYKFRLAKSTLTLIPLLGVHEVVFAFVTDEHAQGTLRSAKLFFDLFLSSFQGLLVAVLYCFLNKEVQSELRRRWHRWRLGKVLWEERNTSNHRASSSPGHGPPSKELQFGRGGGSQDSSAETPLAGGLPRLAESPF
# protocol text: Functional cAMP activity in the presence of 1% HSA
# Assay type: cell-based
# details: read-out: cAMP Rel EC50, hGcgR
Starred links: 1 amine or outer side, 2 acyl side, 3 side chain; linkers in the order of their positions; H or OH if unused. Non-standard residues stand in square brackets, D forms with d. Groups on a side chain read outwards from the residue. No end group written: not given here. *: point of attachment. C20 diacid = O=C(O)CCCCCCCCCCCCCCCCCCC(=O)*; C18 diacid = O=C(O)CCCCCCCCCCCCCCCCC(=O)*; αMePhe(2-F) = C[C@](N)(Cc1ccccc1F)C(=O)O; γGlu = O=C(O)[C@H](CCC(=O)[*:2])N[*:1]; αMe4Pal = C[C@](N)(Cc1ccncc1)C(=O)O; αMeY = C[C@](N)(Cc1ccc(O)cc1)C(=O)O; 4Pal = N[C@@H](Cc1ccncc1)C(=O)O; αMeL = CC(C)C[C@](C)(N)C(=O)O; αMeS = C[C@](N)(CO)C(=O)O; Orn = NCCC[C@H](N)C(=O)O; AEEA = NCCOCCOCC(=O)O; Aib = CC(C)(N)C(=O)O
Kindly note that the scale is log10 and the underlying EC50 is in nM.

Observe how each entry below is paired with its result.
{"substance": "H-Y[Aib]QGTFTSD[4Pal]S[Orn][αMeL]LDKK([AEEA-γGlu-γGlu-C18 diacid])AQ[αMe4Pal]AFIE[αMe4Pal]LIE[Aib]GPSSGEPPPSGS-NH2 [Example 987]", "log10(EC50)": 2.43}
{"substance": "H-Y[Aib]QGT[αMePhe(2-F)]TSD[4Pal]SILLDKK([γGlu-γGlu-C18 diacid])AQ[Aib]AFIEYLEEGGPSSGAPPPSGTEE-NH2 [Example 609]", "log10(EC50)": 2.81}
{"substance": "H-Y[Aib]QGTFTSDFS[Orn][αMeL]LDKK([AEEA-γGlu-C18 diacid])AQ[Aib]AFIEYLLEGGPSSGAPPPGGE-NH2 [Example 63]", "log10(EC50)": 2.85}
{"substance": "H-Y[Aib]QGT[αMePhe(2-F)]TSD[4Pal][αMeS]I[αMeL]LD[Orn]K([AEEA-γGlu-C18 diacid])AQ[αMe4Pal]EFI[dE][αMeY]LVEGGPSSGAPPPTGE-NH2 [Example 1152]", "log10(EC50)": 2.46}
{"substance": "H-Y[Aib]QGT[αMePhe(2-F)]TSD[4Pal][αMeS]I[αMeL]LD[Orn]K([AEEA-γGlu-C18 diacid])AQ[αMe4Pal]EFI[dE][αMeY]LIEGGPPS[Aib]EPPPSGGGE-NH2 [Example 1201]", "log10(EC50)": 2.37}
{"substance": "H-Y[Aib]QGT[αMePhe(2-F)]TSD[4Pal]SILLDKK([AEEA-γGlu-C18 diacid])AQ[Aib]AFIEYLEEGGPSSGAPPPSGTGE-NH2 [Example 662]", "log10(EC50)": 2.75}

**Query** Which log10(EC50) value belongs to H-Y[Aib]QGT[αMePhe(2-F)]TSD[4Pal][αMeS]I[αMeL]LD[Orn]K([γGlu-γGlu-C18 diacid])AQ[Aib]NFI[dE][αMeY]LIEGGPSSGEPEPEEG-NH2 [Example 474] ?
**Result** 2.22

**Query** Which log10(EC50) value belongs to H-Y[Aib]QGTFTSDYSI[αMeL]LDKQAAK([AEEA-AEEA-γGlu-C20 diacid])AFVEWLLA[Aib]GPSSGEPPPSEG-NH2 [Example 317] ?
**Result** 3.18

**Query** Which log10(EC50) value belongs to Y[Aib]QGT[αMePhe(2-F)]TSD[4Pal][αMeS]I[αMeL]LE[Orn]K([AEEA-γGlu-C18 diacid])AQ[αMe4Pal]EFI[dE][αMeY]LVEGGPSSGAPPPSGS-NH2 [Example 768] ?
**Result** 3.36

**Query** Which log10(EC50) value belongs to H-Y[Aib]QGTFTSDFS[Orn][αMeL]LDKK([AEEA-γGlu-C18 diacid])AQ[Aib]AFIEYLLE[Aib]GPSS[Aib]APPPSGS-NH2 [Example 238] ?
**Result** 2.52

**Query** Which log10(EC50) value belongs to Y[Aib]QGTFTSD[4Pal]S[Orn][αMeL]LD[Orn]K([AEEA-γGlu-C18 diacid])AQ[Aib]AFIE[αMeY]LLEGGPSSGAPPPSGS-NH2 [Example 933] ?
**Result** 3.18

###

# tested on: hGIPR (Homo sapiens, UniProt P48546)
# Sequence (P48546 22-466): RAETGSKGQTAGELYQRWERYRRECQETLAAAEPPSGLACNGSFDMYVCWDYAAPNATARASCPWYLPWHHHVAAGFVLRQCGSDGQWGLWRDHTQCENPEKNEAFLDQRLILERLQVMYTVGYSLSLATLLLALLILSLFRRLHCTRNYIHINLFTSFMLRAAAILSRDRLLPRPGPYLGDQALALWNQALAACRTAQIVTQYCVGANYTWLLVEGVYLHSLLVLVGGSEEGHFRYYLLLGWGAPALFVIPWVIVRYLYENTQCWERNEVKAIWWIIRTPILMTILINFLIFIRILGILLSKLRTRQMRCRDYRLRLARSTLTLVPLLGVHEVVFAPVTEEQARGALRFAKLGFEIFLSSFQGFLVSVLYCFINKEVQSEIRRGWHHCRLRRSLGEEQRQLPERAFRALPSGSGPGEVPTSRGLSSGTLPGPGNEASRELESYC
# protocol text: Functional cAMP activation in the presence of 0.1% casein (no HSA);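 also: intracellular cAMP rise after 30 min at 37 °C read by HTRF against a standard curve, scaled between buffer alone (0%) and top control ligand concentration (100%), four-parameter fit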
# Format: cell-based
# details: in the presence of 0.1% casein (no HSA); geometric mean of relative EC50; read-out: Relative cAMP EC50, hGIPR
Starred links: 1 amine or outer side, 2 acyl side, 3 side chain; linkers in the order of their positions; H or OH if unused. Non-standard residues stand in square brackets, D forms with d. Groups on a side chain read outwards from the residue. No end group written: not given here. *: point of attachment. C18 diacid = O=C(O)CCCCCCCCCCCCCCCCC(=O)*; αMePhe(2-F) = C[C@](N)(Cc1ccccc1F)C(=O)O; γGlu = O=C(O)[C@H](CCC(=O)[*:2])N[*:1]; αMe4Pal = C[C@](N)(Cc1ccncc1)C(=O)O; αMeY = C[C@](N)(Cc1ccc(O)cc1)C(=O)O; 4Pal = N[C@@H](Cc1ccncc1)C(=O)O; αMeL = CC(C)C[C@](C)(N)C(=O)O; Orn = NCCC[C@H](N)C(=O)O; AEEA = NCCOCCOCC(=O)O; Aib = CC(C)(N)C(=O)O
Entries annotated with measured EC50
Please answer using a numeric value trailed by its unit.

Observe how each entry below is paired with its result.
{"substance": "H-Y[Aib]QGT[αMePhe(2-F)]TSD[4Pal]SI[αMeL]LDKK([γGlu-γGlu-C18 diacid])AQ[Aib][Orn]FIEYLQEGGPSSGEPPPEGSEE-NH2 [Example 653]", "tested on": "hGIPR (Homo sapiens, UniProt P48546)", "EC50": "0.0303 nM"}
{"substance": "Y[Aib]QGT[αMePhe(2-F)]TSD[4Pal]SI[αMeL]LD[Orn]K([AEEA-γGlu-C18 diacid])AQ[αMe4Pal][Orn]FI[dE][αMeY]LIEGGPSSGEPPPEGEG[dE]-NH2 [Example 692]", "tested on": "hGIPR (Homo sapiens, UniProt P48546)", "EC50": "0.0106 nM"}
{"substance": "H-Y[Aib]QGT[αMePhe(2-F)]TSD[4Pal]SI[αMeL]LDKK([γGlu-γGlu-C18 diacid])AQ[Aib]AFIEYLEEGGPSSGEPPPSGSEE-NH2 [Example 630]", "tested on": "hGIPR (Homo sapiens, UniProt P48546)", "EC50": "0.0233 nM"}
{"substance": "H-Y[Aib]QGT[αMePhe(2-F)]TSD[4Pal]SI[αMeL]LDKK([γGlu-γGlu-C18 diacid])AQ[Aib][Orn]FIEYLAEGGPSSGEPPPSGSEE-NH2 [Example 636]", "tested on": "hGIPR (Homo sapiens, UniProt P48546)", "EC50": "0.054 nM"}

Proceed to the following item.
**Query** Which EC50 value belongs to H-Y[Aib]QGT[αMePhe(2-F)]TSD[4Pal]SI[αMeL]LDKK([γGlu-γGlu-C18 diacid])AQ[Aib][Orn]FIEYLAEGGPSSGEPPPEGSEE-NH2 [Example 650] ?
**Result** 0.0814 nM

###

# tested on: hGLP-1R (Homo sapiens, UniProt P43220)
# Sequence (P43220 24-463): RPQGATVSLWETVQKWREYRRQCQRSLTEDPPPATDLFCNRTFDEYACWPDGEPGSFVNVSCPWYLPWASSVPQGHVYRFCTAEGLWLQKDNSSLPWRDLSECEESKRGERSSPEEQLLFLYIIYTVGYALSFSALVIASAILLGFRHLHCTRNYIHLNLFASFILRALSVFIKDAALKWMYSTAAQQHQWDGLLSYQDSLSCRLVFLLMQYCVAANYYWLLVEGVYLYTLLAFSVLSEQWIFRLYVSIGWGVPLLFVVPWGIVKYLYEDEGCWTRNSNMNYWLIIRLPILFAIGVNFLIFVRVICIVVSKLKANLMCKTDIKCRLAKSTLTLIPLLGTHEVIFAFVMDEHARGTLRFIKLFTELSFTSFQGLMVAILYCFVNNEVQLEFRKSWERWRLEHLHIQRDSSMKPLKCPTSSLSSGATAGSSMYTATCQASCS
# protocol text: Functional cAMP activity in the presence of 1% HSA
# Assay type: cell-based
# details: read-out: cAMP Rel EC50, hGLP-1R
Starred links: 1 amine or outer side, 2 acyl side, 3 side chain; linkers in the order of their positions; H or OH if unused. Non-standard residues stand in square brackets, D forms with d. Groups on a side chain read outwards from the residue. *: point of attachment. C20 diacid = O=C(O)CCCCCCCCCCCCCCCCCCC(=O)*; C18 diacid = O=C(O)CCCCCCCCCCCCCCCCC(=O)*; Phe(4-CN) = N#Cc1ccc(C[C@H](N)C(=O)O)cc1; αMePhe(2-F) = C[C@](N)(Cc1ccccc1F)C(=O)O; γGlu = O=C(O)[C@H](CCC(=O)[*:2])N[*:1]; αMe4Pal = C[C@](N)(Cc1ccncc1)C(=O)O; αMeY = C[C@](N)(Cc1ccc(O)cc1)C(=O)O; 4Pal = N[C@@H](Cc1ccncc1)C(=O)O; αMeL = CC(C)C[C@](C)(N)C(=O)O; αMeS = C[C@](N)(CO)C(=O)O; Orn = NCCC[C@H](N)C(=O)O; AEEA = NCCOCCOCC(=O)O; Aib = CC(C)(N)C(=O)O
readout kind: pEC50
pEC50 is a log-scale quantity: -log10 of the concentration expressed in molar.

**Query** Which pEC50 value belongs to H-Y[Aib]QGT[αMePhe(2-F)]TSD[4Pal][αMeS]I[αMeL]LD[Orn]K([AEEA-γGlu-C18 diacid])AQ[αMe4Pal]EFI[dE][αMeY]LIEGGPPS[Aib]EPPPSGGGE-NH2 [Example 1201] ?
**Result** 7.03

**Query** Which pEC50 value belongs to H-Y[Aib]QGT[αMePhe(2-F)]TSD[4Pal][αMeS]I[αMeL]LD[Orn]K([AEEA-γGlu-C18 diacid])AQ[αMe4Pal]EFI[dE][αMeY]LVEGGPSSGAPPPSGS-NH2 [Example 694] ?
**Result** 7.60

**Query** Which pEC50 value belongs to H-Y[Aib]QGT[αMePhe(2-F)]TSD[4Pal]SI[αMeL]LD[Orn]K([AEEA-γGlu-C18 diacid])AQ[αMe4Pal][Orn]FI[dE][αMeY]LIEGGPSSGEPPPEAE-NH2 [Example 676] ?
**Result** 7.61

**Query** Which pEC50 value belongs to H-Y[Aib]QGT[αMePhe(2-F)]TSD[4Pal][αMeS]I[αMeL]LD[Orn]K([γGlu-γGlu-C18 diacid])AQ[Aib][Orn]FI[dE][αMeY]LTEGGPSSGEPPPEGTEEE-NH2 [Example 598] ?
**Result** 7.33

**Query** Which pEC50 value belongs to H-Y[Aib]QGT[αMePhe(2-F)]TSD[4Pal][αMeS]I[αMeL]LD[Orn]K([AEEA-γGlu-C18 diacid])AQ[αMe4Pal]EFI[dE][αMeY]LIEGGPSSGAPPPEGGGEE-NH2 [Example 1216] ?
**Result** 7.17

**Query** Which pEC50 value belongs to H-Y[Aib]QGTFTSD[4Pal]SQ[αMeL]LDKK([dE-γGlu-C18 diacid])AQ[αMe4Pal]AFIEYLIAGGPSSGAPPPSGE-NH2 [Example 1085] ?
**Result** 6.73

**Query** Which pEC50 value belongs to H-Y[Aib]Q[dA]T[αMePhe(2-F)]TSD[4Pal][αMeS]I[αMeL]LD[Orn]K([AEEA-γGlu-C18 diacid])AQ[Aib]EFI[dE][αMeY]LVEGGPSSGAPPPSGS-NH2 [Example 1204] ?
**Result** 7.43

**Query** Which pEC50 value belongs to H-Y[Aib]QGT[αMePhe(2-F)]TSD[4Pal][αMeS]I[αMeL]LD[Orn]K([AEEA-γGlu-C18 diacid])AQ[αMe4Pal]EFI[dE][αMeY]LIEGGPSSGAPPPEGE-NH2 [Example 1148] ?
**Result** 7.35

**Query** Which pEC50 value belongs to H-Y[Aib]QGT[αMePhe(2-F)]TSD[4Pal]SILLDKK([γGlu-γGlu-C18 diacid])AQ[Aib]AFIEYLQEGGPSSGAPPPSGTE-NH2 [Example 553] ?
**Result** 7.29

**Query** Which pEC50 value belongs to H-Y[Aib]QGTFTSDYSK[αMeL]LDKK([AEEA-γGlu-C20 diacid])AQQAFIEYLIAGGPSSGAPPPSSE-NH2 [Example 322] ?
**Result** 6.87

**Query** Which pEC50 value belongs to H-Y[Aib]QGT[αMePhe(2-F)]TSD[Phe(4-CN)]SILLDKQAQK([AEEA-γGlu-C20 diacid])AFIQYLLEGGPSSGEPPPSEG-NH2 [Example 341] ?
**Result** 6.40
